molecular target: ATP-dependent translocase ABCB1 (Homo sapiens, UniProt P08183); assay: Inhibition of full length human ABCB1 expressed in Flp-In-293 cells at 5 uM incubated for 30 mins by calcein-AM uptake assay relative to control; format: cell-based; conditions: 0.5 h
Sequence (P08183 whole entry): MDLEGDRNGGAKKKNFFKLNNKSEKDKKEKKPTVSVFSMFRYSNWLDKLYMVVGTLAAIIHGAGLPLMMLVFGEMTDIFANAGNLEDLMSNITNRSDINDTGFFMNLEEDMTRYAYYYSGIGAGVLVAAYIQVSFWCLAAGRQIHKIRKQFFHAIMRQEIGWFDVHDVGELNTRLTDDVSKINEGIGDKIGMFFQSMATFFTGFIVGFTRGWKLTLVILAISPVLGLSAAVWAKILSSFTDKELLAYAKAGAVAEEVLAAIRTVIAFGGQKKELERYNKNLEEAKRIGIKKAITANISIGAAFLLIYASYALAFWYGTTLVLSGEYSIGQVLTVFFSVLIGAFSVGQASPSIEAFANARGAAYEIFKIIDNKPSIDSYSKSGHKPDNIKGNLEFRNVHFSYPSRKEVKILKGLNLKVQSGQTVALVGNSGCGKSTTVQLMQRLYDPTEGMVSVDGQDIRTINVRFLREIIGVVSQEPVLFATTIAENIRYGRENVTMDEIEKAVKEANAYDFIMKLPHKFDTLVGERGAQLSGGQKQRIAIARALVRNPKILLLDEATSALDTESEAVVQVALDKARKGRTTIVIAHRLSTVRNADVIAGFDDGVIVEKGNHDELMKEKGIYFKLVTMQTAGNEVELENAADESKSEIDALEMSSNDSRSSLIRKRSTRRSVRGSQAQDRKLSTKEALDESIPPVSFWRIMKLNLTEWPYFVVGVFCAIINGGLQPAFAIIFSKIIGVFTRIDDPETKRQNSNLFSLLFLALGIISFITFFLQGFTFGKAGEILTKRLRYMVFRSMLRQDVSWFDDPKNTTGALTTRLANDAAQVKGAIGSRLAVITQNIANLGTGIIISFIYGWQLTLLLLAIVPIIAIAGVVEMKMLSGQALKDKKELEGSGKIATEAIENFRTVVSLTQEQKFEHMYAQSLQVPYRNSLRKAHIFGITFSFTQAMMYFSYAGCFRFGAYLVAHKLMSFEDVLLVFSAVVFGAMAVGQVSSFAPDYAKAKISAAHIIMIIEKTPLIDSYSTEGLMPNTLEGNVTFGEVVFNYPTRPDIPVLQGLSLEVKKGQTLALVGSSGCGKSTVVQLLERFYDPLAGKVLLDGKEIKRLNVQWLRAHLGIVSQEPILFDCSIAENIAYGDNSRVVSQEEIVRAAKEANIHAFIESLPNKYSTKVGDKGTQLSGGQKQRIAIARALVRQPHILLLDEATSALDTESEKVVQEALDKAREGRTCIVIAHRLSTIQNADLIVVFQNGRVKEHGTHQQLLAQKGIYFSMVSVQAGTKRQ
Define the label as criterion met when fold change (FC) is strictly less than 0.9 and as criterion not met in all remaining cases.

Incoming: Report whether reported fold change (FC) is lower than 0.9 (strictly) for O=c1c(-c2ccc(OC(F)(F)F)cc2)coc2cc3occ(-c4ccc(OC(F)(F)F)cc4)c(=O)c3c(O)c12
Outgoing: criterion met

====

target: ATP-dependent translocase ABCB1 (Homo sapiens); experiment: Inhibition of full length human ABCB1 expressed in Flp-In-293 cells at 2.5 uM incubated for 30 mins by calcein-AM uptake assay relative to control; assay type: cell-based; conditions: 0.5 h
Quantity Measured: fold change (FC)
Numbers only.

Cc1ccccc1-c1coc2c(c(O)cc3occ(-c4ccccc4C)c(=O)c32)c1=O | 1.15
O=c1c(-c2ccc(C(F)(F)F)cc2)coc2c1c(O)cc1occ(-c3ccc(C(F)(F)F)cc3)c(=O)c12 | 0.87
O=c1c(-c2cccc(O)c2)coc2c1c(O)cc1occ(-c3cccc(O)c3)c(=O)c12 | 1.01

For every record below, what is its fold change (FC)?
1. COc1cc(-c2coc3c(c(O)cc4occ(-c5cc(OC)c(OC)c(OC)c5)c(=O)c43)c2=O)cc(OC)c1OC
2. O=c1c(-c2ccc(Cl)cc2)coc2c1c(O)cc1occ(-c3ccc(Cl)cc3)c(=O)c12
3. O=c1c(-c2cccc(F)c2)coc2cc3occ(-c4cccc(F)c4)c(=O)c3c(O)c12
4. O=c1c(-c2ccc3c(c2)OCO3)coc2c1c(O)cc1occ(-c3ccc4c(c3)OCO4)c(=O)c12
5. O=c1c(-c2ccc(Cl)cc2)coc2cc3occ(-c4ccc(Cl)cc4)c(=O)c3c(O)c12

Outgoing:
1: 0.76; 2: 0.76; 3: 0.6; 4: 0.72; 5: 1.06
